Recorded Ki for the following molecules
# Tgt: σ1-receptor (Cavia porcellus, UniProt Q60492)
# Construct: guinea pig brains were homogenized; from tissue; host or cells: guinea pig brain membranes
# Sequence (Q60492 whole entry): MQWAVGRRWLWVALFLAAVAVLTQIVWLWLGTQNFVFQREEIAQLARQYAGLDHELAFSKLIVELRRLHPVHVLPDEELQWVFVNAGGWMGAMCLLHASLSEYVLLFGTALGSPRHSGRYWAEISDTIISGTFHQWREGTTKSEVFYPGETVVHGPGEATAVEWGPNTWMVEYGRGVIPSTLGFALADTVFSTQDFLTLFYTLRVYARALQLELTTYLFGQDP
# Method Notes: Sigma-1 receptor binding assay, [3H](+)-pentazocine displacement in guinea pig brain membranes
# Measurement Setup: [3H](+)-pentazocine 0.5 nM; guinea pig brain membranes; read-out: Sigma-1 Ki (nm) Displ. 10^−7 M (10^−8 M)
Structures can show the parent of a compound that is named as a salt.
Measured Metric: Ki (nM)

| Molecule | Tgt | Assay Value |
| --- | --- | --- |
| Cc1nc(SCCN2CCCC2)nn1-c1ccc(Cl)c(Cl)c1 [compound 3, oxalate] | σ1-receptor (Cavia porcellus, UniProt Q60492) | 1.4 |
| Cc1nc([S+]([O-])CCN2CCCC2)nn1-c1ccc(Cl)c(Cl)c1 (stereo not drawn) [compound 15] | σ1-receptor (Cavia porcellus, UniProt Q60492) | 7 |
| Cc1nc(OCCN2CCCCC2)nn1-c1ccc(Cl)c(Cl)c1 [compound 22] | σ1-receptor (Cavia porcellus, UniProt Q60492) | 3.1 |

====

# Tgt: σ1-receptor (Cavia porcellus, UniProt Q60492)
# Construct: guinea pig brains were homogenized; from tissue; host or cells: guinea pig brain membranes
# Method Notes: Sigma-1 receptor binding assay, [3H](+)-pentazocine displacement in guinea pig brain membranes
# Measurement Setup: compound at 0.01 μM; [3H](+)-pentazocine 0.5 nM; guinea pig brain membranes; read-out: Sigma-1 Inhibition percent (0.01 μM)
Where a name gives a salt, the structure may show the parent alone.
Tick 1 (yes) if inhibition at 0.01 µM is 30% or greater. Tick 0 (no) if inhibition at 0.01 µM is less than 30%.

| Compound | Tgt | Category Label |
| --- | --- | --- |
| Cc1nc(SCCN2CCCC2)nn1-c1ccc(Cl)c(Cl)c1 [compound 3, oxalate] | σ1-receptor (Cavia porcellus, UniProt Q60492) | 1 (yes) |
| Cc1nc(OCCN2CCCC2)nn1-c1ccccc1 [compound 27] | σ1-receptor (Cavia porcellus, UniProt Q60492) | 0 (no) |
| Cc1nc(SCCCCN2CCOCC2)nn1-c1ccc(Cl)c(Cl)c1 [compound 11, oxalate] | σ1-receptor (Cavia porcellus, UniProt Q60492) | 0 (no) |
| Cc1nc(OCCN2CCOCC2)nn1-c1ccc(Cl)c(Cl)c1 [compound 25, oxalate] | σ1-receptor (Cavia porcellus, UniProt Q60492) | 1 (yes) |
| Cc1nc(SCCN2CCOCC2)nn1-c1ccc(Cl)c(Cl)c1 [compound 1, oxalate] | σ1-receptor (Cavia porcellus, UniProt Q60492) | 1 (yes) |
| Cc1nc([S+]([O-])CCN2CCOCC2)nn1-c1ccc(Cl)c(Cl)c1 (stereo not drawn) [compound 16] | σ1-receptor (Cavia porcellus, UniProt Q60492) | 0 (no) |
| Cc1nc(OCCN2CCCCC2)nn1-c1ccc(Cl)c(Cl)c1 [compound 22] | σ1-receptor (Cavia porcellus, UniProt Q60492) | 1 (yes) |
| Cc1nc(SCCCN2CCOCC2)nn1-c1ccc(Cl)c(Cl)c1 [compound 7, oxalate] | σ1-receptor (Cavia porcellus, UniProt Q60492) | 1 (yes) |
| Cc1nc(OCCN2CCCC2)nn1-c1ccc(Cl)c(Cl)c1 [compound 24] | σ1-receptor (Cavia porcellus, UniProt Q60492) | 1 (yes) |

====

# Tgt: σ1-receptor (Cavia porcellus, UniProt Q60492)
# Construct: guinea pig brains were homogenized; from tissue; host or cells: guinea pig brain membranes
# Method Notes: Sigma-1 receptor binding assay, [3H](+)-pentazocine displacement in guinea pig brain membranes
# Measurement Setup: compound at 0.1 μM; [3H](+)-pentazocine 0.5 nM; guinea pig brain membranes; read-out: Sigma-1 Inhibition percent (0.1 μM)
Counter-ions that a name gives are not always drawn.
Measured Metric: inhibition at 0.1 µM (%)

| Compound | Result Units | Assay Value |
| --- | --- | --- |
| Cc1nc([S+]([O-])CCN2CCOCC2)nn1-c1ccc(Cl)c(Cl)c1 (stereo not shown) | % | 42 |
| CCN(CC)CCOc1nc(C)n(-c2ccc(Cl)c(Cl)c2)n1 | % | 85 |
| Cc1nc(SCCCN2CCOCC2)nn1-c1ccc(Cl)c(Cl)c1 [compound 7, oxalate] | % | 85.5 |
| Cc1nc(SCCN2CCCC2)nn1-c1ccc(Cl)c(Cl)c1 [compound 3, oxalate] | % | 106 |
| Cc1nc(SCCCCN2CCC(c3ccccc3)CC2)nn1-c1ccc(Cl)c(Cl)c1 [compound 10, oxalate] | % | 88.1 |
| Cc1nc(SCCCN2CCCC2)nn1-c1ccc(Cl)c(Cl)c1 | % | 82.5 |
| Cc1nc(SCCN2CCOCC2)nn1-c1ccc(Cl)c(Cl)c1 [compound 1, oxalate] | % | 107 |

Ref: patent US8349878B2
